# Species: Rattus norvegicus
# procedure-text: DrugMatrix - Regimen: Daily Repeat
# Format: toxicity, organism-based, Sprague-Dawley
# Set-up: regimen Daily Repeat, gender Male, age 6-8 weeks
# test-conditions: in vivo, po, 0 mg/kg, 120 h, tissue Blood, route oral GAVAGE, dose level Control, time 5 day, vehicle .5 % CMC

>  <molecule>
NC(=O)CN1CCCC1=O

>  <LEUKOCYTE COUNT [x10E3/uL]>
15.03

$$$$
>  <molecule>
Cc1cc2c(s1)Nc1ccccc1N=C2N1CCN(C)CC1 [OLANZAPINE]

>  <LEUKOCYTE COUNT [x10E3/uL]>
15.78

$$$$
>  <molecule>
O=C1c2ccccc2C(=O)C1c1ccccc1 [PHENINDIONE]

>  <LEUKOCYTE COUNT [x10E3/uL]>
11.38

$$$$
>  <molecule>
CC(C)NCC(O)COc1ccc(CC(N)=O)cc1 (stereo unspecified) [ATENOLOL]

>  <LEUKOCYTE COUNT [x10E3/uL]>
11.8

$$$$
>  <molecule>
CC(C)(C#N)c1cc(Cn2cncn2)cc(C(C)(C)C#N)c1 [ANASTROZOLE]

>  <LEUKOCYTE COUNT [x10E3/uL]>
14.93

$$$$
>  <molecule>
COc1cc(/C=C/C(=O)O)ccc1O [FERULATE]

>  <LEUKOCYTE COUNT [x10E3/uL]>
14.08

$$$$
>  <molecule>
CN(C)CCOC(c1ccccc1)c1ccccc1.Cn1c(=O)c2[nH]c(Cl)nc2n(C)c1=O [DIMENHYDRINATE]

>  <LEUKOCYTE COUNT [x10E3/uL]>
15.95

$$$$
>  <molecule>
CCOc1cc(N)c(Cl)cc1C(=O)NCC1CN(Cc2ccc(F)cc2)CCO1 (stereo unspecified) [MOSAPRIDE]

>  <LEUKOCYTE COUNT [x10E3/uL]>
15.07

$$$$
>  <molecule>
COc1cc(NC(C)CCCN)c2ncccc2c1 (stereo unspecified) [PRIMAQUINE]

>  <LEUKOCYTE COUNT [x10E3/uL]>
9.5

$$$$
>  <molecule>
Cl.NC[C@H]1CC[C@H](C(=O)Oc2ccc(CCC(=O)O)cc2)CC1 [CETRAXATE HYDROCHLORIDE]

>  <LEUKOCYTE COUNT [x10E3/uL]>
14.08

$$$$
>  <molecule>
CC(=O)Nc1ccc2c(c1)Cc1ccccc1-2 [2-ACETYLAMINOFLUORENE]

>  <LEUKOCYTE COUNT [x10E3/uL]>
15.07

$$$$
>  <molecule>
CCN1CCN(c2cc3c(cc2F)c(=O)c(C(=O)O)cn3C2CC2)CC1 [ENROFLOXACIN]

>  <LEUKOCYTE COUNT [x10E3/uL]>
11.06

$$$$
>  <molecule>
CCN(CC)CCNC(=O)c1cc(Cl)c(N)cc1OC [METOCLOPRAMIDE]

>  <LEUKOCYTE COUNT [x10E3/uL]>
11.06

$$$$
>  <molecule>
O=C(O)CCc1nc(-c2ccccc2)c(-c2ccccc2)o1 [OXAPROZIN]

>  <LEUKOCYTE COUNT [x10E3/uL]>
16.08

$$$$
>  <molecule>
NC(=O)NC(=O)Cc1ccccc1 [PHENACEMIDE]

>  <LEUKOCYTE COUNT [x10E3/uL]>
11.17

$$$$
>  <molecule>
CC(C)Cc1ccc([C@H](C)C(=O)O)cc1 [DEXIBUPROFEN]

>  <LEUKOCYTE COUNT [x10E3/uL]>
9.45

$$$$
>  <molecule>
NCC(CC(=O)O)c1ccc(Cl)cc1 (stereo unspecified) [BACLOFEN]

>  <LEUKOCYTE COUNT [x10E3/uL]>
15.07

$$$$
>  <molecule>
CCN1C[C@]2(COC)[C@H](O)C[C@H](OC)[C@@]34[C@@H]5C[C@@]6(O)[C@H](OC(=O)c7ccccc7)[C@@H]5[C@@](OC(C)=O)([C@@H]([C@H](OC)[C@H]23)[C@@H]14)[C@@H](O)[C@@H]6OC [ACONITINE]

>  <LEUKOCYTE COUNT [x10E3/uL]>
11.38

$$$$
>  <molecule>
CCN1CCCC1CNC(=O)c1cc(S(N)(=O)=O)ccc1OC (stereo unspecified) [SULPIRIDE]

>  <LEUKOCYTE COUNT [x10E3/uL]>
16.08

$$$$
>  <molecule>
Nc1ccc(C(=O)O)c(O)c1 [AMINOSALICYLIC ACID]

>  <LEUKOCYTE COUNT [x10E3/uL]>
11.87

$$$$
>  <molecule>
COc1ccc(Cl)cc1C(=O)NCCc1ccc(S(=O)(=O)NC(=O)NC2CCCCC2)cc1 [GLYBURIDE]

>  <LEUKOCYTE COUNT [x10E3/uL]>
11.87

$$$$

---

# Species on record: Rattus norvegicus
# procedure-text: DrugMatrix - Regimen: Daily Repeat
# Format: toxicity, organism-based, Sprague-Dawley
# Set-up: regimen Daily Repeat, gender Male, age 6-8 weeks
# test-conditions: in vivo, po, 0 mg/kg, 120 h, tissue Blood, route oral GAVAGE, dose level Control, time 5 day, […]
readout-type: ERYTHROCYTE COUNT (x10E6/uL)

>  <compound>
CCC(C)(C)C(=O)O[C@H]1C[C@@H](C)C=C2C=C[C@H](C)[C@H](CC[C@@H]3C[C@@H](O)CC(=O)O3)[C@H]21 [SIMVASTATIN]

>  <number>
5.36

$$$$
>  <compound>
CC(C)(c1ccc(O)cc1)c1ccc(O)cc1 [BISPHENOL A]

>  <number>
5.36

$$$$
>  <compound>
CO[C@H]1O[C@@H]2O[C@@]3(C)CC[C@H]4[C@H](C)CC[C@@H]([C@H]1C)[C@@]24OO3

>  <number>
5.89

$$$$
>  <compound>
O=C(O)COC(=O)Cc1ccccc1Nc1c(Cl)cccc1Cl [ACECLOFENAC]

>  <number>
5.74

$$$$
>  <compound>
CS(=O)(=O)c1ccc(C2=C(c3ccccc3)C(=O)OC2)cc1 [ROFECOXIB]

>  <number>
5.51

$$$$
>  <compound>
COC(=O)Nc1nc2ccc(C(=O)c3ccccc3)cc2[nH]1 [MEBENDAZOLE]

>  <number>
5.74

$$$$
>  <compound>
CC#C[C@]1(O)CC[C@H]2[C@@H]3CCC4=CC(=O)CCC4=C3[C@@H](c3ccc(N(C)C)cc3)C[C@@]21C [MIFEPRISTONE]

>  <number>
5.36

$$$$
>  <compound>
c1ccc2c(c1)Nc1ccccc1S2 [PHENOTHIAZINE]

>  <number>
5.51

$$$$
>  <compound>
Oc1ncnc2[nH]ncc12 [ALLOPURINOL]

>  <number>
5.5

$$$$

---

# Organism: Rattus norvegicus
# procedure-text: DrugMatrix - Regimen: Daily Repeat
# Format: toxicity, organism-based, Sprague-Dawley
# Set-up: regimen Daily Repeat, gender Male, age 6-8 weeks
# test-conditions: in vivo, po, 0 mg/kg, 120 h, tissue Plasma, route oral GAVAGE, dose level Control, time 5 day, vehicle 100 % WATER
GLUCOSE values by entry

>  <molecule>
Cc1cn([C@H]2C=C[C@@H](CO)O2)c(=O)[nH]c1=O [STAVUDINE]

>  <GLUCOSE, mg/dL>
135.67

$$$$
>  <molecule>
CCN(CC)C(=S)SSC(=S)N(CC)CC

>  <GLUCOSE, mg/dL>
152.5

$$$$
>  <molecule>
C[N+](C)(C)CCOC(N)=O.[Cl-] [CARBACHOL]

>  <GLUCOSE, mg/dL>
135.67

$$$$
>  <molecule>
NN [HYDRAZINE]

>  <GLUCOSE, mg/dL>
152.67

$$$$
>  <molecule>
Cc1cc(C(C)(C)C)c(O)c(C)c1CC1=NCCN1 [OXYMETAZOLINE]

>  <GLUCOSE, mg/dL>
145.67

$$$$
>  <molecule>
C1CCN2C[C@@H]3C[C@@H](CN4CCCC[C@@H]34)[C@H]2C1 [SPARTEINE]

>  <GLUCOSE, mg/dL>
139.33

$$$$
>  <molecule>
CN1C(=O)OC(C)(C)C1=O [TRIMETHADIONE]

>  <GLUCOSE, mg/dL>
180.67

$$$$
>  <molecule>
CCC1(c2ccccc2)C(=O)NC(=O)NC1=O [PHENOBARBITAL]

>  <GLUCOSE, mg/dL>
137

$$$$
>  <molecule>
CC(Cl)(Cl)Cl [TRICHLOROETHANE]

>  <GLUCOSE, mg/dL>
139.33

$$$$

---

A collection of compounds and their measured MEAN CORPUSCULAR HEMOGLOBIN CONCENTRATION
# Organism: Rattus norvegicus
# procedure-text: DrugMatrix - Regimen: Daily Repeat
# Assay type: toxicity, organism-based, Sprague-Dawley
# Parameters: regimen Daily Repeat, gender Male, age 6-8 weeks
# test-conditions: in vivo, iv, 0 mg/kg, 72 h, tissue Blood, dose level Control, time 3 day, vehicle 100 % SALINE
readout-type: MEAN CORPUSCULAR HEMOGLOBIN CONCENTRATION

>  <compound>
CO[C@@]12[C@H](COC(N)=O)C3=C(C(=O)C(C)=C(N)C3=O)N1C[C@@H]1N[C@@H]12 [MITOMYCIN]

>  <result>
39.15 G/DL

$$$$
>  <compound>
COC(=O)C[C@](O)(CCC(C)(C)O)C(=O)O[C@@H]1C(OC)=C[C@]23CCCN2CCc2cc4c(cc2[C@H]13)OCO4 [HARRINGTONINE]

>  <result>
39.28 G/DL

$$$$
>  <compound>
CC(=O)[C@]1(O)Cc2c(O)c3c(c(O)c2[C@@H](O[C@H]2C[C@H](N)[C@H](O)[C@H](C)O2)C1)C(=O)c1ccccc1C3=O [IDARUBICIN]

>  <result>
37.23 G/DL

$$$$
>  <compound>
Cc1c(N)nc([C@H](CC(N)=O)NC[C@H](N)C(N)=O)nc1C(=O)N[C@H](C(=O)N[C@H](C)[C@@H](O)[C@H](C)C(=O)N[C@H](C(=O)NCCc1nc(-c2nc(C(=O)NCCC[S+](C)C)cs2)cs1)[C@@H](C)O)[C@@H](O[C@@H]1O[C@@H](CO)[C@@H](O)[C@H](O)[C@@H]1O[C@H]1O[C@H](CO)[C@@H](O)[C@H](OC(N)=O)[C@@H]1O)c1c[nH]cn1.[Br-] [BLEOMYCIN A2]

>  <result>
39.48 G/DL

$$$$
